TESTED ON: coconut LPAAT (Cocos nucifera, UniProt Q42670)
MEASUREMENT PROTOCOL: LPAAT activity assay, coconut P2 membrane preparation
Type: biochemical
Design: white endosperm tissue lining the inside of the endocarp can be dissected and collected; from tissue; host or cells: immature coconut endosperm, P2 membrane fraction
CONDITION SET: P2 membrane preparation; acyl-CoA donor varied, acceptor 12:0-LPA
Protocol: To assay for LPAAT activity, the sample is incubated with lysophosphatidic acid (LPA) and acyl-coenzyme A (acyl-CoA) substrates in buffered solution. The acyl substituents of the two substrates are chosen to correspond with the specificity of the enzyme being measured. […] LPAAT activity is measured as the amount of radioactive product formed in a given assay time. […]
Overview of recorded LPAAT Activity from Coconut for various molecules

Recorded results for 4 molecules are shown here.
[
  {
    "SMILES RECORD": "CCCCCCCC/C=C\\CCCCCCCC(=O)SCCNC(=O)CCNC(=O)[C@H](O)C(C)(C)COP(=O)(O)OP(=O)(O)OC[C@H]1O[C@@H](n2cnc3c(N)ncnc32)[C@H](O)[C@@H]1OP(=O)(O)O",
    "LPAAT Activity from Coconut": "9 pmol PA formed/30 min assay"
  },
  {
    "SMILES RECORD": "CCCCCCCCCCCC(=O)SCCNC(=O)CCNC(=O)[C@H](O)C(C)(C)COP(=O)(O)OP(=O)(O)OC[C@H]1O[C@@H](n2cnc3c(N)ncnc32)[C@H](O)[C@@H]1OP(=O)(O)O",
    "LPAAT Activity from Coconut": "238 pmol PA formed/30 min assay"
  },
  {
    "SMILES RECORD": "CCCCCCCCCCCCCCCC(=O)SCCNC(=O)CCNC(=O)[C@H](O)C(C)(C)COP(=O)(O)OP(=O)(O)OC[C@H]1O[C@@H](n2cnc3c(N)ncnc32)[C@H](O)[C@@H]1OP(=O)(O)O",
    "LPAAT Activity from Coconut": "21 pmol PA formed/30 min assay"
  },
  {
    "SMILES RECORD": "CCCCCC(=O)SCCNC(=O)CCNC(=O)[C@H](O)C(C)(C)COP(=O)(O)OP(=O)(O)OC[C@H]1O[C@@H](n2cnc3c(N)ncnc32)[C@H](O)[C@@H]1OP(=O)(O)O",
    "LPAAT Activity from Coconut": "3 pmol PA formed/30 min assay"
  }
]

# evaluate next
The molecule CCCCCCCCCCCCCC(=O)SCCNC(=O)CCNC(=O)[C@H](O)C(C)(C)COP(=O)(O)OP(=O)(O)OC[C@H]1O[C@@H](n2cnc3c(N)ncnc32)[C@H](O)[C@@H]1OP(=O)(O)O showed LPAAT Activity from Coconut equal to 61 pmol PA formed/30 min assay

---

TESTED ON: LPAAT of transformant 5511-5 (Cocos nucifera)
Construct: crude P2 membranes, host LPAAT also present
Sequence (Q42670 1-308): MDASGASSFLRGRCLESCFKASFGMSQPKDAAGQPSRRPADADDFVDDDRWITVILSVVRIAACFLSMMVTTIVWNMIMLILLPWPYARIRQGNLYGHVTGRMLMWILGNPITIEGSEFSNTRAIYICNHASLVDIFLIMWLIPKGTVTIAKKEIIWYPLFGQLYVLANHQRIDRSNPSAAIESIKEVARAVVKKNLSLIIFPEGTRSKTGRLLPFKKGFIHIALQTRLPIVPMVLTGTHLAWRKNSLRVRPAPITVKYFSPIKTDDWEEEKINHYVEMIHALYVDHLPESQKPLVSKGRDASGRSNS
MEASUREMENT PROTOCOL: LPAAT acyl-CoA specificity, P2 preparation of LPAAT-transformed line 5511-5
Format: biochemical, Rapeseed
CONDITION SET: acyl-CoA donor varied at 5 μM, acceptor 12:0-LPA; 30 minute reaction
PROPERTY: Cpm PA Product, 5511-5 (Cpm)
Respond numerically; units are Cpm and should not be typed.

[
  {
    "SMILES RECORD": "CCCCCCCCCCCC(=O)SCCNC(=O)CCNC(=O)[C@H](O)C(C)(C)COP(=O)(O)OP(=O)(O)OC[C@H]1O[C@@H](n2cnc3c(N)ncnc32)[C@H](O)[C@@H]1OP(=O)(O)O",
    "QUANTITY UNIT": "Cpm",
    "ENDPOINT VALUE": 9337
  },
  {
    "SMILES RECORD": "CCCCCCCC(=O)SCCNC(=O)CCNC(=O)[C@H](O)C(C)(C)COP(=O)(O)OP(=O)(O)OC[C@H]1O[C@@H](n2cnc3c(N)ncnc32)[C@H](O)[C@@H]1OP(=O)(O)O",
    "QUANTITY UNIT": "Cpm",
    "ENDPOINT VALUE": 454
  },
  {
    "SMILES RECORD": "CCCCCCCC/C=C\\CCCCCCCC(=O)SCCNC(=O)CCNC(=O)[C@H](O)C(C)(C)COP(=O)(O)OP(=O)(O)OC[C@H]1O[C@@H](n2cnc3c(N)ncnc32)[C@H](O)[C@@H]1OP(=O)(O)O",
    "QUANTITY UNIT": "Cpm",
    "ENDPOINT VALUE": 8430
  }
]

# evaluate next
The compound CCCCCCCCCCCCCCCCCC(=O)SCCNC(=O)CCNC(=O)[C@H](O)C(C)(C)COP(=O)(O)OP(=O)(O)OC[C@H]1O[C@@H](n2cnc3c(N)ncnc32)[C@H](O)[C@@H]1OP(=O)(O)O showed Cpm PA Product, 5511-5 equal to 2038

---

TESTED ON: coconut medium-chain LPAAT (Cocos nucifera, UniProt Q42670)
Construct: The frozen coconut P2 preparation is thawed and diluted in a volume of P2 Buffer; from tissue; host or cells: immature coconut endosperm, solubilized S3 supernatant of P2 membranes
MEASUREMENT PROTOCOL: Assay of solubilized coconut LPAAT (S3 preparation) with phospholipid activation
Assay type: biochemical
CONDITION SET: radioactivity of PA product resolved on TLC, after 30 min assay; S3 reactivated with PLs; acceptor 12:0-LPA
Could you label it condition met if measured LPAAT Activity, solubilized coconut LPAAT is 30 cpm or higher, and condition not met otherwise?

Below are worked cases with known answers.
[
  {
    "SMILES RECORD": "CCCCCCCCCCCCCC(=O)SCCNC(=O)CCNC(=O)[C@H](O)C(C)(C)COP(=O)(O)OP(=O)(O)OC[C@H]1O[C@@H](n2cnc3c(N)ncnc32)[C@H](O)[C@@H]1OP(=O)(O)O",
    "CLASS NAME": "condition met"
  },
  {
    "SMILES RECORD": "CCCCCC(=O)SCCNC(=O)CCNC(=O)[C@H](O)C(C)(C)COP(=O)(O)OP(=O)(O)OC[C@H]1O[C@@H](n2cnc3c(N)ncnc32)[C@H](O)[C@@H]1OP(=O)(O)O",
    "CLASS NAME": "condition not met"
  },
  {
    "SMILES RECORD": "CCCCCCCCCC(=O)SCCNC(=O)CCNC(=O)[C@H](O)C(C)(C)COP(=O)(O)OP(=O)(O)OC[C@H]1O[C@@H](n2cnc3c(N)ncnc32)[C@H](O)[C@@H]1OP(=O)(O)O",
    "CLASS NAME": "condition met"
  },
  {
    "SMILES RECORD": "CCCCCCCCCCCC(=O)SCCNC(=O)CCNC(=O)[C@H](O)C(C)(C)COP(=O)(O)OP(=O)(O)OC[C@H]1O[C@@H](n2cnc3c(N)ncnc32)[C@H](O)[C@@H]1OP(=O)(O)O",
    "CLASS NAME": "condition met"
  },
  {
    "SMILES RECORD": "CCCCCCCCCCCCCCCC(=O)SCCNC(=O)CCNC(=O)[C@H](O)C(C)(C)COP(=O)(O)OP(=O)(O)OC[C@H]1O[C@@H](n2cnc3c(N)ncnc32)[C@H](O)[C@@H]1OP(=O)(O)O",
    "CLASS NAME": "condition not met"
  }
]

Consider the record given below.
Query: In plain terms: is recorded LPAAT Activity, solubilized coconut LPAAT at least 30 cpm for CCCCCCCC(=O)SCCNC(=O)CCNC(=O)[C@H](O)C(C)(C)COP(=O)(O)OP(=O)(O)OC[C@H]1O[C@@H](n2cnc3c(N)ncnc32)[C@H](O)[C@@H]1OP(=O)(O)O ?
Response: condition not met

---

TESTED ON: coconut LPAAT (Cocos nucifera, UniProt Q42670)
MEASUREMENT PROTOCOL: Acyl-CoA specificity of coconut LPAAT expressed in E. coli (pCGN5505), membrane fractions
Assay type: biochemical
Parameters: the SalI/BamHI fragment of pCGN5504 containing the entire coconut LPAAT encoding region; made in house; host or cells: E. coli BL21(DE3), membrane fractions
CONDITION SET: acceptor 12:0-LPA
PROPERTY: utilization by E. coli expressed coconut LPAAT

[
  {
    "COMPOUND": "CCCCCCCCCC(=O)SCCNC(=O)CCNC(=O)[C@H](O)C(C)(C)COP(=O)(O)OP(=O)(O)OC[C@H]1O[C@@H](n2cnc3c(N)ncnc32)[C@H](O)[C@@H]1OP(=O)(O)O [10:0]",
    "ENDPOINT VALUE": "most active"
  },
  {
    "COMPOUND": "CCCCCCCCCCCCCC(=O)SCCNC(=O)CCNC(=O)[C@H](O)C(C)(C)COP(=O)(O)OP(=O)(O)OC[C@H]1O[C@@H](n2cnc3c(N)ncnc32)[C@H](O)[C@@H]1OP(=O)(O)O [14:0]",
    "ENDPOINT VALUE": "most active"
  },
  {
    "COMPOUND": "CCCCCCCCCCCC(=O)SCCNC(=O)CCNC(=O)[C@H](O)C(C)(C)COP(=O)(O)OP(=O)(O)OC[C@H]1O[C@@H](n2cnc3c(N)ncnc32)[C@H](O)[C@@H]1OP(=O)(O)O [12:0, lauroyl-CoA]",
    "ENDPOINT VALUE": "most active"
  }
]

Source listed as patent US5968791A.
